From: paper PMC3037833

molecular target: T1, iCAL368; assay: fluorescence polarization competition
T1 chain: SRWPTSII
Reported Ki values for a set of binders
Express your answer in µM, writing the number without its unit.

Binder: NHERF2 PDZ2 (protein) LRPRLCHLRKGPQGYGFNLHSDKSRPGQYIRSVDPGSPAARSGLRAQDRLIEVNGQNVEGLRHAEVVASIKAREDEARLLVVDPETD
Recorded metric: Ki
Recorded value: 433

Inquiry: Which Ki is listed for NHERF2 PDZ1 (protein) RPRLCRLVRGEQGYGFHLHGEKGRRGQFIRRVEPGSPAEAAALRAGDRLVEVNGVNVEGETHHQVVQRIKAVEGQTRLLVVDQETD ?
Reply text: 516
